Target: Vasopressin V1a receptor (Rattus norvegicus, UniProt P30560)
Sequence (P30560 whole entry): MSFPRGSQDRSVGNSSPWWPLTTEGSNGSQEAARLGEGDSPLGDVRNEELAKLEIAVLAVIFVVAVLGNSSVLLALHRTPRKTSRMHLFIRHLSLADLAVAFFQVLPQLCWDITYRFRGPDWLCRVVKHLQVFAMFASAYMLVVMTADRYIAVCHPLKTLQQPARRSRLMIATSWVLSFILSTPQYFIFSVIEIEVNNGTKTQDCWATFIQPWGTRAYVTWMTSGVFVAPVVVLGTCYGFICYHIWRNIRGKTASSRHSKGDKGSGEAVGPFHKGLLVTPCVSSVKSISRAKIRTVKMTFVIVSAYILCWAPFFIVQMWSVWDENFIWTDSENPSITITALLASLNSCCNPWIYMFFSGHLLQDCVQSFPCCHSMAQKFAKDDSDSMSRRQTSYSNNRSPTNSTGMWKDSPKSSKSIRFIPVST
Experiment: Compound was tested for the inhibition of [3H]AVP binding to Dawley […]

>  <structureSmiles>
Cc1ccccc1C(=O)Nc1ccc(C(=O)N2Cc3ccccc3CCc3ccccc32)cc1

>  <unitText>
µM

>  <IC50>
50

$$$$
